# Tested on: NBD1
# EXPERIMENT_NOTES: Aggregation analysis of NBD1 thermal stability by differential static light scattering (DSLS)
# Assay type: binding, Human
# DETAILS: 100 μM compound; ΔTagg versus DMSO control
OBSERVABLE: DSLS NBD1/3D Human Stability delta-T (° C.) @ 100 (μM)

1) O=C(O)CCc1cccc(Cc2cc(N3CCCCC3=O)n(-c3cc(Oc4c(F)cc5[nH]ccc5c4F)ccc3F)n2)c1 :: C (C: ≤4° C.)
2) CC(c1cccc(CCC(=O)O)c1F)c1nn(-c2cc(Oc3c(F)cc4[nH]ccc4c3F)ccc2F)c2c1CCC2 (centres unmarked) :: C (C: ≤4° C.)
3) Cc1ncc(C(N)c2nnc(-c3cccc(Oc4ccc5[nH]cnc5c4)c3)[nH]2)s1 (centres unmarked) :: C (C: ≤4° C.)
4) c1cc(Oc2ccc3[nH]ccc3c2)cc(-c2nnc(Cc3cncs3)[nH]2)c1 :: C (C: ≤4° C.)
5) Cc1ncc(C(O)c2nnc(-c3cccc(Oc4ccc5[nH]ccc5c4C(=O)O)c3)[nH]2)s1 (centres unmarked) :: C (C: ≤4° C.)
6) O=C(O)CCc1cccc(Cc2cc(N3CCCC3=O)n(-c3cc(Oc4c(F)cc5[nH]ccc5c4F)ccc3F)n2)c1 :: C (C: ≤4° C.)
7) OC(Cc1nccs1)c1cnc(-c2cccc(Oc3ccc4[nH]cnc4c3)c2)[nH]1 (centres unmarked) :: C (C: ≤4° C.)
8) C[C@H](c1nc(-c2cc(Oc3c(F)cc4[nH]ccc4c3F)ccc2F)n(C)n1)c1ccc(CCC(=O)O)s1 (single isomer, unassigned) :: A (A: T ≥8° C.)
9) O=C(O)CCc1ccc(Cc2cnc(-c3cc(Oc4c(F)cc5[nH]ccc5c4F)ccc3F)[nH]2)s1 :: A (A: T ≥8° C.)
10) c1cc(Oc2ccc3[nH]ccc3c2)cc(-c2nnc(Cc3cccs3)[nH]2)c1 :: C (C: ≤4° C.)
11) C[C@@H](c1nc(-c2cc(Oc3c(F)cc4[nH]ccc4c3F)ccc2F)n(C)n1)c1ccc(CCC(=O)O)s1 (single isomer, unassigned) :: B (B: 4-8° C.)
12) Cc1c(Oc2ccc(F)c(-c3ccn(Cc4cnc(CCC(N)=O)s4)n3)c2)c(F)cc2[nH]ccc12 :: C (C: ≤4° C.)
13) O=C(O)CCc1ncc(Cc2cnc(-c3cc(Oc4c(F)cc5[nH]ccc5c4F)ccc3F)[nH]2)s1 :: B (B: 4-8° C.)
14) O=C(O)CCn1ccc(Cc2cnc(-c3cc(Oc4c(F)cc5[nH]ccc5c4F)ccc3F)[nH]2)n1 :: B (B: 4-8° C.)
15) Cc1cnc(C(O)c2c[nH]c(-c3cccc(Oc4ccc5[nH]ccc5c4)c3)n2)s1 (centres unmarked) :: B (B: 4-8° C.)
16) Cc1ccc(Cc2nnc(-c3cccc(Oc4cc5cc[nH]c5cn4)c3)[nH]2)s1 :: C (C: ≤4° C.)
17) Cn1cc(Cc2nnc(-c3cccc(Oc4ccc5[nH]ccc5n4)c3)[nH]2)cn1 :: C (C: ≤4° C.)
18) c1cc(Oc2ccc3[nH]ccc3c2)cc(-c2nnc(Cc3nccs3)[nH]2)c1 :: C (C: ≤4° C.)
19) Cc1ccc(C(O)c2c[nH]c(-c3cccc(Oc4ccc5[nH]ccc5c4)c3)n2)s1 (centres unmarked) :: B (B: 4-8° C.)
20) Cn1cc(C(O)c2nnc(-c3cccc(Oc4ccc5[nH]ccc5c4)c3)[nH]2)cn1 (centres unmarked) :: B (B: 4-8° C.)

Origin of measurements: patent US20260242373A1
